system: Saccharomyces cerevisiae BY4741 SeMeCo community; assay: z-score of subpopulation abundance vs DMSO median, subpopulation auxotrophic for H; higher = larger share of this subpopulation than in DMSO controls; details: 10 µM; 24 h; SM minimal medium; subpopulation (auxotrophy): H
Counter-ions that a name gives are not always drawn.
z-score of subpopulation abundance by entry:
When you answer, write just the number.

Study these solved cases before continuing.
INSERT INTO results (compound, assay_target, measured) VALUES
  ('Clc1ccc(COC(Cn2ccnc2)c2ccc(Cl)cc2Cl)cc1 (centres undefined) [Econazole nitrate]', 'Saccharomyces cerevisiae BY4741 SeMeCo community', 15.7),
  ('COc1ccc(CN2CCN(C(c3ccc(F)cc3)c3ccc(F)cc3)CC2)c(OC)c1OC [Lomerizine 2HCl]', 'Saccharomyces cerevisiae BY4741 SeMeCo community', -0.09);

Q) Consider the compound O=C(c1ccc(OCCN2CCCCC2)cc1)c1c(-c2ccc(O)cc2)sc2cc(O)ccc12 [Raloxifene HCl] and give its measured z-score of subpopulation abundance.
A) 0.59

Q) Consider the compound CO/N=C(\C(=O)N[C@@H]1C(=O)N2C(C(=O)O)=C(CSc3nc(=O)c(O)nn3C)CS[C@H]12)c1csc(N)n1 [Ceftriaxone Sodium Trihydrate] and give its measured z-score of subpopulation abundance.
A) -0.32
